Biological target: UniProt P08172
Sequence (P08172 1-466): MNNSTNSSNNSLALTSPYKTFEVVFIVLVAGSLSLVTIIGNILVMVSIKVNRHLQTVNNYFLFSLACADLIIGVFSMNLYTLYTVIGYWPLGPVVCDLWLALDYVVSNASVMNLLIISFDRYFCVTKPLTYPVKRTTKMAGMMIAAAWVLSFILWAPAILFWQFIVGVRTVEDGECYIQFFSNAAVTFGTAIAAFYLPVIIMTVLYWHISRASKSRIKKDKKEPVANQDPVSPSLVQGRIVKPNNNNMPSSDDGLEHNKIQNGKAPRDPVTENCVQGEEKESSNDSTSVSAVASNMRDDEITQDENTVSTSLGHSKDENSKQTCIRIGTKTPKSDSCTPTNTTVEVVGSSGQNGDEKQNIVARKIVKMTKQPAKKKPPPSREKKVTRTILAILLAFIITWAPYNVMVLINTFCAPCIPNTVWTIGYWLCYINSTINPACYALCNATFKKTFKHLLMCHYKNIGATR
Experiment: Blockade of agonist-mediated (oxotremorine-stimulated) [35S]GTPγS binding
Settings: CHO-K1 cells expressing the hM2 receptor
Observed Property: Ki

# compound O=C(CCN1CCC(OC(=O)Nc2ccccc2-c2ccccc2)CC1)NCCCCCNCc1ccc(O)cc1 [Example 2] ; its Ki = < 10 nM

====

target: hM2 receptor (CHO-K1 cells) (Homo sapiens); assay: Blockade of agonist-mediated (oxotremorine) inhibition of forskolin-mediated cAMP accumulation; settings: CHO-K1 cells expressing the hM2 receptor
Observed Property: Ki

Summary line: CN(CCCCCNC(=O)CCN1CCC(OC(=O)Nc2ccccc2-c2ccccc2)CC1)Cc1ccc(O)cc1 , hM2 receptor (CHO-K1 cells) (Homo sapiens), reported Ki = < 10 nM

====

molecular target: hM3 receptor (CHO cells) (Homo sapiens); assay: Blockade of agonist-mediated calcium release via FLIPR assay; settings: CHO cells stably expressing the hM3 receptor
Sequence (P20309 whole entry): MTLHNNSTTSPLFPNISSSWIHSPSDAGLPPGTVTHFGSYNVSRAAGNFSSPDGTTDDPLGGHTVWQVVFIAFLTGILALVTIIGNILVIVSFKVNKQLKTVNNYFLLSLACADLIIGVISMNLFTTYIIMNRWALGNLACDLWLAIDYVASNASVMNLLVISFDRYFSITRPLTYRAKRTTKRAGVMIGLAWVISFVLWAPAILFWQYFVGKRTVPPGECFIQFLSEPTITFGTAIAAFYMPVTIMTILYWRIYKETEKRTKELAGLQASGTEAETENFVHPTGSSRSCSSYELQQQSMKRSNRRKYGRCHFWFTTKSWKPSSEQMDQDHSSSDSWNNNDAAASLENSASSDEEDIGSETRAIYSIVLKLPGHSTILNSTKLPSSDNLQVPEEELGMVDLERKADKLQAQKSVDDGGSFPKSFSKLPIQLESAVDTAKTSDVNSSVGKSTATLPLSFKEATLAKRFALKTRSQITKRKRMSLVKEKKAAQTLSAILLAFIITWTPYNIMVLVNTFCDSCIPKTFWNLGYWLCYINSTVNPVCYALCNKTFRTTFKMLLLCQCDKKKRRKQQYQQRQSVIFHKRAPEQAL
Observed Property: Ki

Summary line: O=C(CCN1CCC(OC(=O)Nc2ccccc2-c2ccccc2)CC1)NCCCCCNCc1ccc(O)cc1 , hM3 receptor (CHO cells) (Homo sapiens), reported Ki = < 10 nM

Origin of measurements: patent US7569588B2
